Tested on: MDR1
Assay: in vitro
Conditions: dog, MDCK-MDR1, pH 7.4, MDCK-MDR1: Papp B-A (10^−6, cm/s)
metric.name: Papp B→A at 120 min, 5 μM
Lab note: write values as number then unit, every time.

These recorded examples may help you get a feel for the data.
molecule	metric.name	endpoint.result
CN(c1cnc(-c2cc3ccc(OCF)nc3cc2O)cn1)[C@@H]1CC2CC[C@H](N2)[C@@H]1F (single isomer, unassigned)	Papp B→A at 120 min, 5 μM	18.6 ×10⁻⁶ cm/s
CN(C)C(=O)c1cc2cc(O)c(-c3cnc(N(C)[C@@H]4C[C@H]5CCC(N5)[C@@H]4F)cn3)cc2o1 (single isomer, unassigned)	Papp B→A at 120 min, 5 μM	42.4 ×10⁻⁶ cm/s

Papp B→A at 120 min, 5 μM reading for CN(c1cnc(-c2ccc(-c3cnn(C)c3)cc2O)cn1)[C@@H]1CC2COC[C@H](N2)[C@@H]1F (single isomer, unassigned) : 38.1 ×10⁻⁶ cm/s

* * *

Test system: MDR1-MDCK cell monolayers
Settings: dog, MDCK-MDR1, 120 min, 5 μM, pH 7.4
Bucketed by reported MDCK-MDR1: % Recov B-A (%), buckets being low value: < 60%; medium value: ≥ 60% and < 90%; high value: ≥ 90%

compound	discrete.label
CN(c1cnc(-c2ccc(-c3cn[nH]c3)cc2O)cn1)[C@@H]1C[C@H]2CCC(N2)[C@@H]1F (single isomer, unassigned)	medium value
O=c1cc(-c2ccc(-c3cnc(N(C4CC4)[C@@H]4CC5CC[C@H](N5)[C@@H]4F)cn3)c(O)c2)ccn1CF (single isomer, unassigned)	medium value
CN(c1cnc(-c2ccc(-c3ccn(C)c(=O)c3)cc2O)cn1)[C@H]1C[C@@H]2CCCC(N2)[C@H]1F (single isomer, unassigned)	high value
CN(c1cnc(-c2cc(F)c(-c3cnn(CF)c3)cc2O)cn1)[C@@H]1CC2CC[C@H](N2)[C@@H]1F (single isomer, unassigned)	low value
COc1cc(-c2ccc(-c3cnc(N(C4CC4)[C@H]4C[C@@H]5CCC(N5)[C@H]4F)cn3)c(O)c2)ncn1 (single isomer, unassigned)	low value

Next up:
Enquiry: Form: Item = COc1cc(-c2ccc(-c3cnc(N(C)[C@@H]4C[C@@]5(C)CC[C@](C)(N5)[C@@H]4F)cn3)c(O)c2)cnn1 ; Class = ?
Return: medium value

* * *

Tested on: MDR1 (P-gp)
Test: MDCK-MDR1 permeability assay, blood-brain-barrier penetration potential
Conditions: dog, MDCK-MDR1, pH 7.4, MDCK-MDR1 Efflux Ratio
metric.name: efflux ratio at 120 min, 5 μM
Keep the answer to the number alone.

These recorded examples may help you get a feel for the data.
molecule	experimental.system	metric.name	endpoint.result
CN(c1cnc(-c2ccc(-c3cn[nH]c3)cc2O)cn1)[C@@H]1CC2CC[C@H](N2)[C@H]1F (single isomer, unassigned) [Compound 27E1]	MDR1 (P-gp)	efflux ratio at 120 min, 5 μM	7
COc1cc(-c2cc(O)c(-c3cnc(N(C)[C@@H]4CC5CC(F)(F)[C@@H](C4)N5)cn3)cc2F)cnn1 (single isomer, unassigned) [Compound 67E1]	MDR1 (P-gp)	efflux ratio at 120 min, 5 μM	2
Cn1ccc(-c2cc(O)c(-c3cnc(N(C4CC4)[C@@H]4CC5CC[C@H](N5)[C@@H]4F)cn3)cc2F)cc1=O (single isomer, unassigned) [Compound 38E1]	MDR1 (P-gp)	efflux ratio at 120 min, 5 μM	37
Cn1cc(-c2ccc(-c3cnc(N(C4CC4)[C@@H]4CC5CC[C@H](N5)[C@@H]4F)cn3)c(O)c2)cn1 (single isomer, unassigned) [Compound 49E1]	MDR1 (P-gp)	efflux ratio at 120 min, 5 μM	6
COc1cc(-c2cc(O)c(-c3cnc(N(C4CC4)[C@H]4C[C@@H]5CCC(N5)[C@H]4F)cn3)cc2F)ccn1 (single isomer, unassigned) [Compound 36E2]	MDR1 (P-gp)	efflux ratio at 120 min, 5 μM	2

efflux ratio at 120 min, 5 μM reading for CN(c1cnc(-c2ccc(-c3cc[nH]c(=O)c3)cc2O)cn1)[C@@H]1CC2CC[C@H](N2)[C@@H]1F (single isomer, unassigned) [Compound 76E1] : 102

efflux ratio at 120 min, 5 μM reading for COc1cc(-c2cc(O)c(-c3cnc(N(C4CC4)[C@H]4C[C@@H]5CCC(N5)[C@H]4F)cn3)cc2F)cc(F)n1 (single isomer, unassigned) [Compound 37E2] : 3

efflux ratio at 120 min, 5 μM reading for COc1cc(-c2ccc(-c3cnc(N(C)[C@H]4C[C@@H]5CCC(N5)[C@H]4F)cn3)c(O)c2)cnn1 (single isomer, unassigned) [Compound 26E2] : 8

efflux ratio at 120 min, 5 μM reading for COc1cc(-c2ccc(-c3cnc(N(C)[C@@H]4CC5CC[C@H](N5)[C@@H]4F)cn3)c(O)c2)ncn1 (single isomer, unassigned) [Compound 48E1] : 2

efflux ratio at 120 min, 5 μM reading for CN(c1cnc(-c2ccc(-c3nnco3)cc2O)cn1)[C@@H]1CC2CC[C@H](N2)[C@@H]1F (single isomer, unassigned) [Compound 80E1] : 4

efflux ratio at 120 min, 5 μM reading for CN(c1cnc(-c2cc3oc(C(=O)N4CCC4)cc3cc2O)cn1)[C@@H]1CC2CC[C@H](N2)[C@@H]1F (single isomer, unassigned) [Compound 20E1] : 21

Hey, just so you know, these numbers are from patent US11964971B2.
